measuredOn: RecQ-WH (Escherichia coli)
Construct: coding for residues 408– 523 of E. coli RecQ; made in house; host or cells: E. coli BL21(DE3)
Sequence (P15043 408-523): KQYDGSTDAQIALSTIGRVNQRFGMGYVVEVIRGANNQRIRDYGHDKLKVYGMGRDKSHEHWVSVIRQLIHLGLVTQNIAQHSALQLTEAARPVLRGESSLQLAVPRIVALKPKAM
procedureSummary: Pull-down assay with immobilized protein and LSM libraries
Parameters: species or system E. coli
conditions: H14 library; 1:1 binding assumed; read-out: Surface mapping KD (apparent)
outcomeMeasure: pKd
Please note pKd is a logarithmic value: minus log10 of concentration in mol/L. Answer with that number alone.

Some solved entries appear below for comparison.
entrySmiles	obsValue
CSCC[C@@H](CC(=O)N[C@H]1CCCC[C@@H]1C(=O)N[C@H]1CCCC[C@@H]1C(=O)N[C@H](CC(=O)N[C@H]1CCCC[C@@H]1C(N)=O)Cc1c[nH]c2ccccc12)NC(=O)[C@H]1CCCC[C@@H]1N	3.71
NC(=O)[C@H]1CCCC[C@@H]1NC(=O)C[C@H](Cc1c[nH]c2ccccc12)NC(=O)[C@H]1CCCC[C@@H]1NC(=O)[C@H]1CCCC[C@@H]1NC(=O)C[C@H](Cc1ccc(O)cc1)NC(=O)[C@H]1CCCC[C@@H]1N	4.34

Then this compound:
Identify pKd associated with the compound CC(C)C[C@@H](CC(=O)N[C@H]1CCCC[C@@H]1C(N)=O)NC(=O)[C@H]1CCCC[C@@H]1NC(=O)[C@H]1CCCC[C@@H]1NC(=O)C[C@H](CC(C)C)NC(=O)[C@H]1CCCC[C@@H]1N
3.69

====

measuredOn: Gal-1 (Homo sapiens)
Construct: made in house; host or cells: E. coli BL21(DE3)
Sequence (P09382 whole entry): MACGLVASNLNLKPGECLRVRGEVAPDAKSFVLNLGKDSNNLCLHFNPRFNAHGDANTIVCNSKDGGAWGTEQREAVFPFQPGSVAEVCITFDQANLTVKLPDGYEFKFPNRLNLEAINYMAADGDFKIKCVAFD
procedureSummary: Competition pull-down with lactose
Type: binding
conditions: H14 library; lactose 10 mM; read-out: Surface mapping KD (apparent), competition
Collected pKd values appear next to each entry.
Please note pKd is a logarithmic value: minus log10 of concentration in mol/L. Answer with that number alone.

entrySmiles	measuredOn	pKd
CSCC[C@@H](CC(=O)N[C@H]1CCCC[C@@H]1C(N)=O)NC(=O)[C@H]1CCCC[C@@H]1NC(=O)[C@H]1CCCC[C@@H]1NC(=O)C[C@H](CC(=O)O)NC(=O)[C@H]1CCCC[C@@H]1N	Gal-1 (Homo sapiens)	3.40
CC(C)[C@@H](CC(=O)N[C@H]1CCCC[C@@H]1C(=O)N[C@H]1CCCC[C@@H]1C(=O)N[C@@H](C)CC(=O)N[C@H]1CCCC[C@@H]1C(N)=O)NC(=O)[C@H]1CCCC[C@@H]1N	Gal-1 (Homo sapiens)	3.43
CC[C@H](C)[C@@H](CC(=O)N[C@H]1CCCC[C@@H]1C(=O)N[C@H]1CCCC[C@@H]1C(=O)N[C@H](CC(=O)N[C@H]1CCCC[C@@H]1C(N)=O)Cc1c[nH]c2ccccc12)NC(=O)[C@H]1CCCC[C@@H]1N	Gal-1 (Homo sapiens)	4.19
NCCCC[C@@H](CC(=O)N[C@H]1CCCC[C@@H]1C(N)=O)NC(=O)[C@H]1CCCC[C@@H]1NC(=O)[C@H]1CCCC[C@@H]1NC(=O)C[C@H](CC(N)=O)NC(=O)[C@H]1CCCC[C@@H]1N	Gal-1 (Homo sapiens)	3.47

Then this compound:
Using Gal-1 (Homo sapiens) as the test system, report measured pKd of NC(=O)[C@H]1CCCC[C@@H]1NC(=O)C[C@H](Cc1ccccc1)NC(=O)[C@H]1CCCC[C@@H]1NC(=O)[C@H]1CCCC[C@@H]1NC(=O)C[C@H](CC(=O)O)NC(=O)[C@H]1CCCC[C@@H]1N .
3.41

Taken from paper PMC8162404.
